# ASSAY REMARKS: Volume of distribution in rat
# Assay type: ADME, organism-based
# TEST CONTEXT: in vivo, read-out: Vdss
READOUT TYPE: Vd (L/kg)
Provide the reading as a plain figure in L/kg.

IN: Requested read-out: Vd. Entry: COc1ccc2c(OC[C@H](O)CO)nc(C#N)c(-c3ccccc3)c2c1
OUT: 1.7

---

# ASSAY REMARKS: Clearance in rat
# Assay type: ADME, organism-based
# TEST CONTEXT: in vivo
READOUT TYPE: clearance (mL/min/kg)
Provide the reading as a plain figure in mL/min/kg.

IN: Requested read-out: clearance. Entry: COc1ccc2c(=O)n(C)c(CN(C)C)c(-c3ccccc3)c2c1
OUT: 26

IN: Requested read-out: clearance. Entry: COc1ccc2c(OC[C@H](O)CO)nc(C#N)c(-c3ccccc3)c2c1
OUT: 13

---

Assign bioavailability to each entry below.
# ASSAY REMARKS: Bioavailability in rat
# Format: ADME, organism-based
# TEST CONTEXT: in vivo
Provide the reading as a plain figure in %.

IN: Requested read-out: bioavailability. Entry: COc1ccc2c(=O)n(C)c(CN(C)C)c(-c3ccccc3)c2c1
OUT: 11

IN: Requested read-out: bioavailability. Entry: COc1ccc2c(OC[C@H](O)CO)nc(C#N)c(-c3ccccc3)c2c1
OUT: 67

---

Recorded below: IC50, system Voltage-gated inwardly rectifying potassium channel KCNH2 (Homo sapiens, UniProt Q12809).
Provide the reading as a plain figure in µM.

IN: Observed IC50 on Voltage-gated inwardly rectifying potassium channel KCNH2 (Homo sapiens, UniProt Q12809) for COc1ccc2c(=O)n(C)c(CN(C)C)c(-c3ccccc3)c2c1 , please.
Sequence (Q12809 whole entry): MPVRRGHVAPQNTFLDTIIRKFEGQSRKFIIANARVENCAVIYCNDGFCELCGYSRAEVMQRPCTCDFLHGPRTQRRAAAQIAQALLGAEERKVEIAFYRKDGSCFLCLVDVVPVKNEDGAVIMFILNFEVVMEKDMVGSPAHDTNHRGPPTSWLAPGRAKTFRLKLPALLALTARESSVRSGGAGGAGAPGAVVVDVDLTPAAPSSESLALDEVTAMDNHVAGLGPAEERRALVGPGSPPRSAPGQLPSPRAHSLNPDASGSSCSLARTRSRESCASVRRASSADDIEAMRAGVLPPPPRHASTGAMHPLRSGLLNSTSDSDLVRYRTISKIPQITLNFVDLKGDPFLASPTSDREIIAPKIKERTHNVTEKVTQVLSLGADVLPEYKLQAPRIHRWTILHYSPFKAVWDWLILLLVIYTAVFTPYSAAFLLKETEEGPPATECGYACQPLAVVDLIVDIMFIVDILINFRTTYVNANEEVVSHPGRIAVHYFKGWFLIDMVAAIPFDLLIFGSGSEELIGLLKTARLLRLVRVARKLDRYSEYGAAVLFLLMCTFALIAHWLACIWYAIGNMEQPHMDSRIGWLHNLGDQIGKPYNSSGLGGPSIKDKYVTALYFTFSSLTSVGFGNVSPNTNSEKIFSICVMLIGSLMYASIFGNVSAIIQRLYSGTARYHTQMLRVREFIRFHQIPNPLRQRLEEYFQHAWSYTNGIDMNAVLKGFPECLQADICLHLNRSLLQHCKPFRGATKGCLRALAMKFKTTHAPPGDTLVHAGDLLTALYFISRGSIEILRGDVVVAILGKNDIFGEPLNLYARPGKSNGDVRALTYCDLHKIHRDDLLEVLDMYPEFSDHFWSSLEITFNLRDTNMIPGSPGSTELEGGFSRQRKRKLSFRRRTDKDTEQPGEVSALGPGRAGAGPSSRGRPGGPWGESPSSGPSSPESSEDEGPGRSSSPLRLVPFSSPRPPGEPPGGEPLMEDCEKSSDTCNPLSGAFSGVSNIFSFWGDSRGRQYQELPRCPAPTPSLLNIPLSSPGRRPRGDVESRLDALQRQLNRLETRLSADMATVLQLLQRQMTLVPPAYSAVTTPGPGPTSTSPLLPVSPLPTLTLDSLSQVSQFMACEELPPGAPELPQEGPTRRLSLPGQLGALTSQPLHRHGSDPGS
OUT: 5.3

IN: Observed IC50 on Voltage-gated inwardly rectifying potassium channel KCNH2 (Homo sapiens, UniProt Q12809) for COc1ccc2c(OC[C@H](O)CO)nc(C#N)c(-c3ccccc3)c2c1 , please.
OUT: 20.5

IN: Observed IC50 on Voltage-gated inwardly rectifying potassium channel KCNH2 (Homo sapiens, UniProt Q12809) for COc1ccc2c(=O)n(CC(CO)NCc3cccnc3)c(C#N)c(-c3ccccc3)c2c1 (stereo unspecified) , please.
OUT: 10

IN: Observed IC50 on Voltage-gated inwardly rectifying potassium channel KCNH2 (Homo sapiens, UniProt Q12809) for COc1ccc2c(=O)n(CC(O)CO)c(C#N)c(-c3cccc(F)c3)c2c1 (stereo unspecified) , please.
OUT: 33.5

IN: Observed IC50 on Voltage-gated inwardly rectifying potassium channel KCNH2 (Homo sapiens, UniProt Q12809) for COc1ccc2c(NC[C@H](O)CO)nc(C#N)c(-c3ccccc3)c2c1 , please.
OUT: 15

---

# TARGET OR TEST SYSTEM: Potassium voltage-gated channel subfamily A member 5 (Homo sapiens)
# Sequence (P22460 whole entry): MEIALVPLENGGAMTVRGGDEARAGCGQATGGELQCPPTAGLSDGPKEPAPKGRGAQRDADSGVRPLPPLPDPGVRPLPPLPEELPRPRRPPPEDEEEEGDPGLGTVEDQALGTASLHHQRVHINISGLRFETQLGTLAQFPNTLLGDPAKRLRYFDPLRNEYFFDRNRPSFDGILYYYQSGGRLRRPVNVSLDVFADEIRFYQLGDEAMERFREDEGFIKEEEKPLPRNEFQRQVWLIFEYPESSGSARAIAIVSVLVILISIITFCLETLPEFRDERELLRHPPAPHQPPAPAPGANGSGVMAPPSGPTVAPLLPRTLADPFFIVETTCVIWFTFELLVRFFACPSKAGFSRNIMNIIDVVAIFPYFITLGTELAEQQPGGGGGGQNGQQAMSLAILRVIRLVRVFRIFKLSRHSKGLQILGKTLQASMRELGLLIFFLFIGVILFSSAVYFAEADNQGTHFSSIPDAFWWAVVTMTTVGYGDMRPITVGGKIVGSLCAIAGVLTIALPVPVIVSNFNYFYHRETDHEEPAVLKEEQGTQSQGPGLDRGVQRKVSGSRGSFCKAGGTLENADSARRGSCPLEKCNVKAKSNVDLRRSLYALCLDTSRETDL
# ASSAY REMARKS: Antagonist activity at human Kv1.5 channel expressed in CHO cell membrane by HT clamp assay
Assign pIC50 to each entry below.
Please treat pIC50 as minus the base-10 logarithm of the molar concentration.

IN: Observed pIC50 on Potassium voltage-gated channel subfamily A member 5 (Homo sapiens) for COCCN(C)CCn1c(C#N)c(-c2cccc(F)c2)c2cc(OC)ccc2c1=O , please.
OUT: 6.10

IN: Observed pIC50 on Potassium voltage-gated channel subfamily A member 5 (Homo sapiens) for COc1ccc2c(=O)n(CCO)c(C#N)c(-c3cccc(F)c3)c2c1 , please.
OUT: 6.16

IN: Observed pIC50 on Potassium voltage-gated channel subfamily A member 5 (Homo sapiens) for COc1ccc2c(=O)n(CC(O)CO)c(C#N)c(-c3cccc(C(F)(F)F)c3)c2c1 (stereo not drawn) , please.
OUT: 6.60

IN: Observed pIC50 on Potassium voltage-gated channel subfamily A member 5 (Homo sapiens) for COc1ccc2c(OC[C@H](O)CO)nc(C#N)c(-c3ccccc3)c2c1 , please.
OUT: 6.80

IN: Observed pIC50 on Potassium voltage-gated channel subfamily A member 5 (Homo sapiens) for COc1ccc2c(=O)n(CC(CO)NCc3cccnc3)c(C#N)c(-c3ccccc3)c2c1 (stereo not drawn) , please.
OUT: 6.92

IN: Observed pIC50 on Potassium voltage-gated channel subfamily A member 5 (Homo sapiens) for COc1ccc2c(=O)n(CC(O)CO)c(C#N)c(-c3cccc(F)c3)c2c1 (stereo not drawn) , please.
OUT: 6.06

IN: Observed pIC50 on Potassium voltage-gated channel subfamily A member 5 (Homo sapiens) for COc1ccc2c(=O)n(C)c(CN(C)C)c(-c3ccccc3)c2c1 , please.
OUT: 6.72

IN: Observed pIC50 on Potassium voltage-gated channel subfamily A member 5 (Homo sapiens) for COc1ccc2c(-n3cnc(C)c3)nc(C#N)c(-c3cccc(F)c3)c2c1 , please.
OUT: 6.59
